Data credit: patent US11358931B2

Assay: Pharmacokinetics in ovariectomized female rats (plasma, Day 14)
Format: in vivo, rat
Conditions: rat, plasma; OVX female rats, PO, Day 14, 3 mg/kg, mean ± SD of n = 4
This listing pairs compounds with measured Cmax.
# unit: ng/mL | format: bare number

N#Cc1ccc(N2CCC[C@@H]2[C@@H](O)C(F)(F)F)cc1C(F)(F)F | 207

// query Quick one: Cmax of C[C@](O)(COc1ccc(C#N)cc1)C(=O)Nc1ccc(C#N)c(C(F)(F)F)c1 ?
// result 1480

====

Experiment: Pharmacokinetics in Sprague Dawley rats, repeat oral administration for 15 days
Format: in vivo, rat
Settings: male, Sprague-Dawley, rat, plasma, po, 10 mg/kg, SD rats, oral gavage once daily, Day 15, 10 mg/kg, Male, n = 2
measurement-kind: AUC(0-inf) (ng·h/mL)
Please state the figure in ng·h/mL; there is no need to write the unit.

// query AUC(0-inf) value for entry N#Cc1ccc(N2CCC[C@@H]2[C@@H](O)C(F)(F)F)cc1C(F)(F)F
// result 2670

====

Assay: Pharmacokinetics in ovariectomized female rats (plasma, Day 14)
Assay type: in vivo, rat
Conditions: female, rat, plasma, po, 3 mg/kg, OVX female rats, PO, Day 14, 3 mg/kg, n = 4; 0 hr conc. substituted for 24 hr; read-out: AUC24
measurement-kind: AUC (ng·h/mL)
Answer with a number only, understood to be in ng·h/mL.

// query Look at this molecule and give its reported AUC. C[C@](O)(COc1ccc(C#N)cc1)C(=O)Nc1ccc(C#N)c(C(F)(F)F)c1
// result 20600

// query Same again, this time with N#Cc1ccc(N2CCC[C@@H]2[C@@H](O)C(F)(F)F)cc1C(F)(F)F
// result 880

====

Experiment: Pharmacokinetics in orchidectomized male rats (plasma, Day 14)
Type: in vivo
Conditions: male, rat, po, 0.3 mg/kg, ORX male rats, Day 14, 0.3 mg/kg, read-out: AUC6
measurement-kind: AUC (ng·h/mL)
Write the answer as a number in ng·h/mL, unit excluded.

// query # query: AUC of entry N#Cc1ccc(N2CCC[C@@H]2[C@@H](O)C(F)(F)F)cc1C(F)(F)F [Compound 102]
// result 18

====

Assay: Pharmacokinetics in Sprague Dawley rats, repeat oral administration for 15 days
Type: in vivo, rat
Conditions: female, Sprague-Dawley, rat, plasma, po, 10 mg/kg, SD rats, oral gavage, Day 1, 10 mg/kg, Female
measurement-kind: Cmax
Note: a bare number is incomplete; add the unit.

// query I am curious: what Cmax value has been reported for N#Cc1ccc(N2CCC[C@@H]2[C@@H](O)C(F)(F)F)cc1C(F)(F)F ?
// result 366 ng/mL

====

Assay: Pharmacokinetics in Sprague Dawley rats, repeat oral administration for 15 days
Assay type: in vivo, rat
Conditions: female, Sprague-Dawley, rat, plasma, po, 1 mg/kg, SD rats, oral gavage, Day 1, 1 mg/kg, Female
measurement-kind: AUC(0-inf) (ng·h/mL)
Give the value, in units of ng·h/mL, as a plain number.

// query Quick one: AUC(0-inf) of N#Cc1ccc(N2CCC[C@@H]2[C@@H](O)C(F)(F)F)cc1C(F)(F)F ?
// result 436

====

Test: Pharmacokinetics in Sprague Dawley rats, repeat oral administration for 15 days
Type: in vivo, rat
Conditions: male, Sprague-Dawley, rat, plasma, po, 1 mg/kg, SD rats, oral gavage, Day 1, 1 mg/kg, Male
measurement-kind: Tmax (h)
Report only the number, with the unit h understood.

// query Form field: reported Tmax of N#Cc1ccc(N2CCC[C@@H]2[C@@H](O)C(F)(F)F)cc1C(F)(F)F [Compound 102]
// result 1.2

====

Assay: Pharmacokinetics in Sprague Dawley rats, repeat oral administration for 15 days
Format: in vivo, rat
Conditions: male, Sprague-Dawley, rat, plasma, po, 10 mg/kg, SD rats, oral gavage, Day 1, 10 mg/kg, Male
measurement-kind: Cmax (ng/mL)
// note: answer is a bare numeric in ng/mL

// query Requested field: Cmax. Item: N#Cc1ccc(N2CCC[C@@H]2[C@@H](O)C(F)(F)F)cc1C(F)(F)F [Compound 102]
// result 176

====

Assay: Pharmacokinetics in Sprague Dawley rats, repeat oral administration for 15 days
Format: in vivo, rat
Conditions: male, Sprague-Dawley, rat, plasma, po, 1 mg/kg, SD rats, oral gavage, Day 1, 1 mg/kg, Male
measurement-kind: Cmax
The answer should read as a number with its unit following.

// query # Cmax lookup, item N#Cc1ccc(N2CCC[C@@H]2[C@@H](O)C(F)(F)F)cc1C(F)(F)F
// result 14 ng/mL

====

Assay: Pharmacokinetics in Sprague Dawley rats, repeat oral administration for 15 days
Format: in vivo, rat
Settings: female, Sprague-Dawley, rat, plasma, po, 10 mg/kg, SD rats, oral gavage once daily, Day 15, 10 mg/kg, Female, n = 4; read-out: AUC24
measurement-kind: AUC (ng·h/mL)
The reply should be a number in ng·h/mL, with the unit left off.

// query For the compound N#Cc1ccc(N2CCC[C@@H]2[C@@H](O)C(F)(F)F)cc1C(F)(F)F , what AUC is on record?
// result 4280

====

Test: Pharmacokinetics in Sprague Dawley rats, repeat oral administration for 15 days
Format: in vivo, rat
Details: male, Sprague-Dawley, rat, plasma, po, 3 mg/kg, SD rats, oral gavage, Day 1, 3 mg/kg, Male
measurement-kind: Cmax
Please state the value followed by its unit.

// query Cmax for N#Cc1ccc(N2CCC[C@@H]2[C@@H](O)C(F)(F)F)cc1C(F)(F)F [Compound 102] ?
// result 51 ng/mL

====

Experiment: Pharmacokinetics in Sprague Dawley rats, repeat oral administration for 15 days
Assay type: in vivo, rat
Conditions: female, Sprague-Dawley, rat, plasma, po, 1 mg/kg, SD rats, oral gavage, Day 1, 1 mg/kg, Female
Experimental: The pharmacokinetics of Compound 102 following repeat oral administration for 15 days was evaluated in Sprague-Dawley rats. A total of 30 rats (15 males and 15 females) were divided into three dose groups (5 males/5 females). […] 50 μL of plasma was extracted with 250 μL of acetonitrile and the plasma concentration of Compound 102 was determined by an LC-MS/MS method. The plasma concentration time data were analyzed by a non-compartmental pharmacokinetic method using WinNonlin. […]
measurement-kind: Tmax (h)
Quick reminder: number only, in h, skip the unit.

// query Field request: Tmax | item: N#Cc1ccc(N2CCC[C@@H]2[C@@H](O)C(F)(F)F)cc1C(F)(F)F
// result 1.4

====

Assay: Pharmacokinetics in Sprague Dawley rats, repeat oral administration for 15 days
Assay type: in vivo, rat
Conditions: male, Sprague-Dawley, rat, plasma, po, 3 mg/kg, SD rats, oral gavage, Day 1, 3 mg/kg, Male; read-out: AUC24
measurement-kind: AUC
A bare number is not enough; add the unit after it.

// query # lookup: AUC of N#Cc1ccc(N2CCC[C@@H]2[C@@H](O)C(F)(F)F)cc1C(F)(F)F [Compound 102]
// result 318 ng·h/mL

====

Experiment: Pharmacokinetics in orchidectomized male rats (plasma, Day 14)
Format: in vivo
Conditions: rat, ORX male rats, PO, Day 14, 0.01 mg/kg
measurement-kind: Tmax (h)
Give the value, in units of h, as a plain number.

// query Endpoint output: Tmax of N#Cc1ccc(N2CCC[C@@H]2[C@@H](O)C(F)(F)F)cc1C(F)(F)F [Compound 102] . Value?
// result 2.8

====

Assay: Pharmacokinetics in Sprague Dawley rats, repeat oral administration for 15 days
Format: in vivo, rat
Settings: male, Sprague-Dawley, rat, plasma, po, 1 mg/kg, SD rats, oral gavage, Day 1, 1 mg/kg, Male; read-out: AUC24
measurement-kind: AUC (ng·h/mL)
Form entry: value (ng·h/mL) — number only.

// query For the compound N#Cc1ccc(N2CCC[C@@H]2[C@@H](O)C(F)(F)F)cc1C(F)(F)F [Compound 102] , what AUC is on record?
// result 104

====

Assay: Pharmacokinetics in Sprague Dawley rats, repeat oral administration for 15 days
Assay type: in vivo, rat
Settings: female, Sprague-Dawley, rat, plasma, po, 1 mg/kg, SD rats, oral gavage, Day 1, 1 mg/kg, Female
measurement-kind: half-life (h)
The response must be a number in h with no trailing unit.

// query Quick one: half-life for N#Cc1ccc(N2CCC[C@@H]2[C@@H](O)C(F)(F)F)cc1C(F)(F)F [Compound 102] ?
// result 5.4

====

Experiment: Pharmacokinetics in Sprague Dawley rats, repeat oral administration for 15 days
Assay type: in vivo, rat
Details: female, Sprague-Dawley, rat, plasma, po, 10 mg/kg, SD rats, oral gavage once daily, Day 15, 10 mg/kg, Female, n = 4
measurement-kind: half-life (h)
Report as a plain number; the unit h is understood.

// query half-life lookup needed for N#Cc1ccc(N2CCC[C@@H]2[C@@H](O)C(F)(F)F)cc1C(F)(F)F [Compound 102] , thanks.
// result 5.4
